Numbers sourced from the RNAGym collection of RNA variant scans (doi:10.7554/elife.80360).

B1: CPEB3 Ribozyme (parent)
chain: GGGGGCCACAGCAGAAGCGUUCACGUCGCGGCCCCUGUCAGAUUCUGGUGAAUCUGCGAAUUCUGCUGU

Variants of: B1
assay-comment: self-cleavage, relative activity (ratio to wild type); higher = more cleavage; co-transcriptional
Entry class follows self-cleavage: bucket 1 (below 0.2), bucket 2 (0.2 to below 0.5), bucket 3 (0.5 or more)

Returns: class label. Input: A16G A40U
bucket 2

Returns: class label. Input: G4C C54G
bucket 1

Returns: class label. Input: U38G A60G
bucket 2

Returns: class label. Input: A42C A51G
bucket 3

Returns: class label. Input: A16G G25A
bucket 2

Returns: class label. Input: U53G G58C
bucket 3

Returns: class label. Input: U44A G68C
bucket 3

Returns: class label. Input: C12G U21G
bucket 2

Returns: class label. Input: G19A G58U
bucket 1

Returns: class label. Input: G3A C24U
bucket 1

Returns: class label. Input: A23C C34A
bucket 3

Returns: class label. Input: A15C A42U
bucket 3

Returns: class label. Input: A15U A52U
bucket 3

Returns: class label. Input: A15U G30A
bucket 2

Returns: class label. Input: C33G A42U
bucket 3

Returns: class label. Input: C7G U46A
bucket 2

Returns: class label. Input: A23U C66G
bucket 3

Returns: class label. Input: G17C U38G
bucket 1

Returns: class label. Input: C12U G47A
bucket 3

Returns: class label. Input: U36C U44G
bucket 3

Returns: class label. Input: C32U U46A
bucket 3

Returns: class label. Input: A15G C45A
bucket 3

Returns: class label. Input: G4C G30U
bucket 1

Returns: class label. Input: A16U C18A
bucket 1

Returns: class label. Input: G25C G50A
bucket 1

Returns: class label. Input: G17A U53A
bucket 2

Returns: class label. Input: G25C G28U
bucket 1

Returns: class label. Input: G5U U44G
bucket 1

Returns: class label. Input: U38G U46C
bucket 2

Returns: class label. Input: G25U U61G
bucket 1

Returns: class label. Input: A40G C57G
bucket 2

Returns: class label. Input: U38G G48U
bucket 2

Returns: class label. Input: C7A C54A
bucket 2

Returns: class label. Input: C7U U69G
bucket 3

Returns: class label. Input: C12G C27A
bucket 2

Returns: class label. Input: G25A C63U
bucket 1

Returns: class label. Input: G1U A42G
bucket 1

Returns: class label. Input: C29G A60G
bucket 2

Returns: class label. Input: U36G C63G
bucket 1

Returns: class label. Input: G37C U44C
bucket 1

Returns: class label. Input: C18G G31A
bucket 1

Returns: class label. Input: G19A C45G
bucket 1

Returns: class label. Input: C6A A40U
bucket 2

Returns: class label. Input: C35U U38C
bucket 3

Returns: class label. Input: C24U U64C
bucket 3
